Sourced from the supplement of paper PMC9262897

system: E. coli TESEC Mtb Alr; test: growth (OD600 after 10 h); higher = more growth (less inhibition); details: arabinose 100 nM; compound 0.1 mM; raw OD600 reference: median of DMSO wells 0.413, cell-free background 0.052
Structures can show the parent of a compound that is named as a salt.
experimental.readout: growth
Enter a number only.

Example entries begin here.
- COC(=O)CCc1ccc(OCC(O)CNC(C)C)cc1 (stereo not drawn) [Esmolol hydrochloride]: 0.405
- O=C(O)c1cc(/N=N/c2ccc(S(=O)(=O)Nc3ccccn3)cc2)ccc1O: 0.431

Next, consider the following molecule.
Q: Name the recorded growth for Cc1ccc(S(=O)(=O)NC(=O)NN2CCCCCC2)cc1 [Tolazamide] .
Ans: 0.398

----------
system: E. coli TESEC Mtb Asd; assay: growth (OD600 after 10 h); higher = more growth (less inhibition); details: arabinose induction (level): Low; compound 0.1 mM; raw OD600 reference: median of DMSO wells 0.417, cell-free background 0.041
Structures can show the parent of a compound that is named as a salt.
I would appreciate it if you labelled entries yes (1) when growth is 0.3 or higher, otherwise no (0).

Would you please look over these solved cases?
- c1cnc(N2CCN(Cc3ccc4c(c3)OCO4)CC2)nc1 [Piribedil hydrochloride]: yes (1)
- N=C(N)NC(=O)Cc1c(Cl)cccc1Cl [Guanfacine hydrochloride]: yes (1)
- CN(C)CCN(Cc1ccc(Cl)cc1)c1ccccn1 [Chloropyramine hydrochloride]: yes (1)
- O=C(O)c1ccccc1Nc1cccc(C(F)(F)F)c1 [Flufenamic acid]: no (0)
- O=C1Cc2cc(CCN3CCN(c4nsc5ccccc45)CC3)c(Cl)cc2N1 [Ziprasidone Hydrochloride]: yes (1)
- C/C(=C(\CCOP(=O)(O)O)SC(=O)c1ccccc1)N(C=O)Cc1cnc(C)nc1N [Benfotiamine]: yes (1)
- O=C(O)CCc1nc(-c2ccccc2)c(-c2ccccc2)o1 [Oxaprozin]: no (0)
- CN(C)CCOC(C)(c1ccccc1)c1ccccn1 (stereo unspecified) [Doxylamine succinate]: yes (1)

Q: Can CC(CN(C)C)C(C)(O)Cc1ccc(Cl)cc1 (stereo unspecified) [Clobutinol hydrochloride] be said to have growth at or above 0.3?
Ans: yes (1)

Q: Check the entry CN(C)CCOC(c1ccc(Cl)cc1)c1ccccn1 (stereo unspecified) [Carbinoxamine maleate salt] : does growth equal or exceed 0.3?
Ans: yes (1)

Q: Decide: growth of COc1cc(C)c(/C=C/C(C)=C/C=C/C(C)=C/C(=O)O)c(C)c1C [Acitretin] >= 0.3?
Ans: no (0)

----------
system: E. coli TESEC Mtb Alr; assay: growth (OD600 after 10 h); higher = more growth (less inhibition); conditions: arabinose 1000000 nM; compound 0.1 mM; raw OD600 reference: median of DMSO wells 0.193, cell-free background 0.041
Structures can show the parent of a compound that is named as a salt.
experimental.readout: growth
Form rule: numeric answer, no unit written next to it.

Q: Would you mind telling me what growth value was observed for CCOC(=O)C1=C(C)NC(C)=C(C(=O)OC)C1c1cccc([N+](=O)[O-])c1 (stereo not drawn) ?
Ans: 0.0556

Q: May I ask what growth has been recorded for CC(C)(C)NC(=O)[C@@H]1CN(Cc2cccnc2)CCN1C[C@@H](O)C[C@@H](Cc1ccccc1)C(=O)N[C@H]1c2ccccc2C[C@H]1O [Indinavir sulfate] ?
Ans: 0.149

Q: I'd like to know its growth. The molecule in question is COC(=O)Nc1nc2cc(Sc3ccccc3)ccc2[nH]1
Ans: 0.195

Q: What value of measured growth is listed for CCN(CC)CCNC(=O)c1cc(S(C)(=O)=O)ccc1OC [Tiapride hydrochloride] ?
Ans: 0.184

Q: I would be grateful if you could share the reported growth for N[C@@H]1CCCCN(c2c(F)cc3c(=O)c(C(=O)O)cn(C4CC4)c3c2Cl)C1 [Besifloxacin hydrochloride] .
Ans: 0.0402

----------
tested on: E. coli TESEC Mtb DapB; assay: growth (OD600 after 10 h); higher = more growth (less inhibition); settings: arabinose induction (level): Low; compound 0.1 mM; raw OD600 reference: median of DMSO wells 0.227, cell-free background 0.041
Structures can show the parent of a compound that is named as a salt.
experimental.readout: growth

Illustrative cases are given below, each with its answer.
• O=C(CCCN1CC=C(n2c(=O)[nH]c3ccccc32)CC1)c1ccc(F)cc1 = 0.206
• COc1ccc(C(Cl)=C(c2ccc(OC)cc2)c2ccc(OC)cc2)cc1 = 0.267
• CC(=O)N[C@@H](CC(C)C)C(=O)O = 0.205

Q: If you can, please state the reported growth value of CCCCC(CC)CN1CN(CC(CC)CCCC)CC(C)(N)C1 (stereo not given) .
Ans: 0.225

Q: Requested read-out: growth. Entry: OC(CCN1CCCCC1)(c1ccccc1)C1CC2C=CC1C2 (stereo not given) [Biperiden hydrochloride]
Ans: 0.174

----------
test system: E. coli TESEC Mtb DapB; assay: growth (OD600 after 10 h); higher = more growth (less inhibition); conditions: arabinose induction (level): Low; compound 0.1 mM; raw OD600 reference: median of DMSO wells 0.227, cell-free background 0.041
Counter-ions that a name gives are not always drawn.
Measured growth by item
Answer with the value's number alone.

Answered examples (3):
• CCCCNC(=O)NS(=O)(=O)c1ccc(C)cc1 [Tolbutamide] = 0.186
• C=CCOc1ccccc1OCC(O)CNC(C)C (stereo unspecified) [Oxprenolol hydrochloride] = 0.225
• Nc1ccc(S(=O)(=O)Nc2ccc(Cl)nn2)cc1 [Sulfachloropyridazine] = 0.236

Q: What measured growth is associated with CCN[C@H]1C[C@H](C)S(=O)(=O)c2sc(S(N)(=O)=O)cc21 [Dorzolamide hydrochloride] on E. coli TESEC Mtb DapB?
Ans: 0.253

Q: Kindly state the measured growth obtained for COc1ccc(C(=O)NCc2ccc(OCCN(C)C)cc2)cc1OC [Itopride] with E. coli TESEC Mtb DapB.
Ans: 0.268

Q: Request body: readout growth, system E. coli TESEC Mtb DapB, query Cc1ccc(C)c(OCCCC(C)(C)C(=O)O)c1 [Gemfibrozil] . Return the value.
Ans: 0.195

Q: Item CCCN(CCC)C(=O)C(CCC(=O)O)NC(=O)c1ccccc1 (stereo unspecified) [Proglumide] with E. coli TESEC Mtb DapB - growth?
Ans: 0.246

Q: Checklist item: growth tested on E. coli TESEC Mtb DapB, entry CC(=O)OCC(=O)[C@@]1(O)CC[C@H]2[C@@H]3CCC4=CC(=O)C=C[C@]4(C)[C@@]3(F)[C@@H](O)C[C@@]21C [Isoflupredone acetate] , value?
Ans: 0.253

Q: Which measured growth belongs to CCN1CCN(C(=O)N[C@@H](C(=O)N[C@@H]2C(=O)N3[C@@H]2SC(C)(C)[C@@H]3C(=O)O)c2ccccc2)C(=O)C1=O [Piperacillin sodium salt] , tested on E. coli TESEC Mtb DapB?
Ans: 0.207

Q: What reported growth corresponds to O=C1O[C@H]([C@@H](O)CO)C(O)=C1O [Ascorbic acid] on E. coli TESEC Mtb DapB?
Ans: 0.209

Q: Record CCc1oc2ccccc2c1C(=O)c1cc(Br)c(O)c(Br)c1 [Benzbromarone] : what is its growth with E. coli TESEC Mtb DapB?
Ans: 0.0491

----------
system: E. coli TESEC Mtb DapB; assay: growth (OD600 after 10 h); higher = more growth (less inhibition); conditions: arabinose induction (level): High; compound 0.1 mM; raw OD600 reference: median of DMSO wells […], cell-free background 0.041
experimental.readout: growth
Lab note: record the figure alone, no unit after it.

Study these solved cases before continuing.
- CC(C(=O)O)c1ccc2c(c1)[nH]c1ccc(Cl)cc12 (stereo not drawn): 0.201
- CO/N=C(\C(=O)N[C@@H]1C(=O)N2C(C(=O)OC(C)OC(C)=O)=C(COC(N)=O)CS[C@H]12)c1ccco1 (stereo partly drawn): 0.196

Q: Which growth value is on record for CCOCCn1c(N2CCCN(C)CC2)nc2ccccc21 ?
Ans: 0.205

----------
test system: E. coli TESEC Mtb Alr; experiment: growth (OD600 after 10 h); higher = more growth (less inhibition); details: arabinose 100 nM; compound 0.1 mM; raw OD600 reference: median of DMSO wells 0.413, cell-free background 0.052
Where a name gives a salt, the structure may show the parent alone.
Entries and their growth values follow.
Please give only the number in your answer, with no unit.

- CN(C)C(=N)NC(=N)N [Metformin hydrochloride]: 0.404
- CCc1nc(N)nc(N)c1-c1ccc(Cl)cc1: 0.401
- O=C(O)CCCC[C@@H]1SC[C@@H]2NC(=O)N[C@@H]21: 0.408
- Cn1c([N+](=O)[O-])cnc1COC(N)=O: 0.433
- CN(C(=O)C(Cl)Cl)c1ccc(OC(=O)c2ccco2)cc1 [Diloxanide furoate]: 0.415
- C[N+](C)(C)CCOC(N)=O: 0.409

Q: Given CC(=O)OCC(CCn1cnc2cnc(N)nc21)COC(C)=O , state its recorded growth.
Ans: 0.416

Q: I'd like to know its growth. The compound in question is CC(C)NC(=N)NC(=N)Nc1ccc(Cl)cc1 [Proguanil hydrochloride]
Ans: 0.422
